biological target: DNA dC->dU-editing enzyme APOBEC-3G (Homo sapiens) (UniProt Q9HC16); test: qHTS for inhibitors of Vif-A3G interactions: Validation (AID 588379); details: Vif-A3G protein interaction assay; series mostly up to 46.1 µM
Sequence (Q9HC16 whole entry, looked up): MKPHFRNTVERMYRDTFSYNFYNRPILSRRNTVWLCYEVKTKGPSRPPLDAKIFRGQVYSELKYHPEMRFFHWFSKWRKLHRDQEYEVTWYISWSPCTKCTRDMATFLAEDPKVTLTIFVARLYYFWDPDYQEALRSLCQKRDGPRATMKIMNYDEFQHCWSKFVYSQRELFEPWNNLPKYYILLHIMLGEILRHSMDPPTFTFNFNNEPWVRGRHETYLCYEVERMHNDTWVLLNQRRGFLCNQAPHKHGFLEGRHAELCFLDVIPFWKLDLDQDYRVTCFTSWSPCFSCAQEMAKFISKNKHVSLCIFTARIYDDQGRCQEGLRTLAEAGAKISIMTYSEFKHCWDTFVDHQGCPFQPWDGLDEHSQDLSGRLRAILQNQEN
Activity calls are given as the source filed them. Calls come from the whole dose curve; as a rule, active = well fitted inhibition curve with a large enough effect; inconclusive = small, poorly fitted or top-dose-only effect; inactive = flat fitted curve, though single readings scatter.
measured parameter: outcome

// known answers, use as guide
compound: COc1ccc(-c2ccc(=N)n(CCCC(=O)O)n2)cc1
result: inactive
//
compound: CCCN=C(N)NCCC[C@H](N)C(=O)O
result: inactive
//
compound: O=C(Nc1ccc(C(=O)Nc2ccc(C(=O)Nc3ccc(S(=O)(=O)O)c4cc(S(=O)(=O)O)cc(S(=O)(=O)O)c34)cc2)cc1)Nc1ccc(C(=O)Nc2ccc(C(=O)Nc3ccc(S(=O)(=O)O)c4cc(S(=O)(=O)O)cc(S(=O)(=O)O)c34)cc2)cc1
result: inactive
//
compound: c1ccc(N2CCN(CCCOc3ccc4c(c3)OCO4)CC2)cc1
result: inactive
//
compound: N[C@@H](C(=O)O)c1cc(O)ccc1Cl
result: inactive

From here, focus on the item given below.
Input: Which outcome value belongs to Fc1cccc(/C=N\N=C/c2cccc(F)c2)c1 ?
Output: inactive

----------
assay: qHTS for Inhibitors of Plasmodium falciparum (7G8) proliferation (AID 504316); note: nearly all actives have a fitted effect of over 65% in size; conditions: P. falciparum 7G8 in erythrocytes, SYBR Green DNA, 72 h; series mostly up to 6.7 µM
Results filed as inconclusive are left out. Activity calls are given as the source filed them. Calls come from the whole dose curve; as a rule, active = well fitted inhibition curve with a large enough effect; inconclusive = small, poorly fitted or top-dose-only effect; inactive = flat fitted curve, though single readings scatter.

compound: CC1(OC(=O)C2CCCC2)C(=O)C=C2C=C(c3ccc(C#N)cc3)OC=C2C1=O (centres undefined)
outcome: inactive

compound: CCC(=O)OC1(C)C(=O)C=C2C=C(c3ccc(C#N)cc3)OC=C2C1=O (centres undefined)
outcome: inactive

compound: COC(=O)[C@H]1C[C@@]2(CC=C(C)C)C(=O)[C@@](CC=C(C)C)(C(=O)C(C(=O)c3ccccc3)=C2OC)C1(C)C
outcome: inactive

compound: COC(=O)[C@@]1(C=C2c3ccc(F)cc3[C@@H](OC)[C@@H]2C)[C@@H]2OCCC[C@@H]21
outcome: inactive

----------
target: 3',5'-cyclic-AMP phosphodiesterase 4B (Homo sapiens) (UniProt Q07343); experiment: qHTS Assay for Inhibitors of PDE-IV (AID 607); details: HEK293 ACTOne CNG channel cells, membrane potential fluorescence; series mostly up to 22.9 µM
Sequence (Q07343 whole entry, looked up): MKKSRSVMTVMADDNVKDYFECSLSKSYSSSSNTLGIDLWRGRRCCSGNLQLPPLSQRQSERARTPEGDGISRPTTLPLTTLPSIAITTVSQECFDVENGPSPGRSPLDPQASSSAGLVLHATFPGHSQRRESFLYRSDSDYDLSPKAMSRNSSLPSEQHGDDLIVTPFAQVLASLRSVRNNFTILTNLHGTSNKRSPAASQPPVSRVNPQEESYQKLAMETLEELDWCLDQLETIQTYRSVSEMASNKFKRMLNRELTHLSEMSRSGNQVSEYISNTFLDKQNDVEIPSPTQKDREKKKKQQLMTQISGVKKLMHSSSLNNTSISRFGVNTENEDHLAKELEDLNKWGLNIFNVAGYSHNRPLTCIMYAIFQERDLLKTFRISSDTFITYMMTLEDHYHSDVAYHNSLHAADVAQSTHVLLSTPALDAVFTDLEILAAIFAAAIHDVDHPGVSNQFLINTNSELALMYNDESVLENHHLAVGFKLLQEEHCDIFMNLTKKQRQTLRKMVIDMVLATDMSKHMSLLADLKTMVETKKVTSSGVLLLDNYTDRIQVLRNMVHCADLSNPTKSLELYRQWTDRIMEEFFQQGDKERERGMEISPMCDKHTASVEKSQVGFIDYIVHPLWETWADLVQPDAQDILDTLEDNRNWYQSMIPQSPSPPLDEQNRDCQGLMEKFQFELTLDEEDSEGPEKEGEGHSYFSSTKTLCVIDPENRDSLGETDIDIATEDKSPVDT
Results filed as inconclusive are left out. Activity calls are given as the source filed them. The call rests on the fitted dose curve; in most records, active means well fitted activation curve with a large enough effect in the main read-out, with a control signal flat (not every such curve was filed as active); inconclusive means small, poorly fitted or top-dose-only effect, or effect the other way, or a change in a side signal; inactive means flat fitted curve, though single readings scatter.

compound: Cc1nc(N=Nc2cc(S(=O)(=O)O)ccc2S(=O)(=O)O)c(COP(=O)(O)O)c(C=O)c1O
outcome: inactive

compound: CC[C@@H](C)[C@H]1O[C@]2(CC[C@@H]1C)C[C@@H]1C[C@H](C/C=C(/C)[C@H](O[C@@H]3C[C@H](OC)[C@H](O[C@@H]4C[C@H](OC)[C@@H](O)[C@H](C)O4)[C@H](C)O3)[C@@H](C)/C=C\C=C3CO[C@@H]4[C@H](O)C(C)=C[C@@H](C(=O)O1)[C@]34O)O2 (tested in a mixture with another compound)
outcome: inactive

----------
Measured Potency, listed per entry for reference.
test system: Zika virus NS2B-NS3 protease (linked construct); assay: 384 well plate NINDS Rhodamine confirmatory qHTS for Zika virus inhibitors (AID 1347164); conditions: rhodamine-110 peptide substrate fluorescence; series mostly up to 1 mM;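 note: fluorescence from protease cleavage of Ac-LKRR-rhodamine 110 substrate; potency is the fitted concentration of half-maximal effect; nearly all actives have a fitted effect of over 65% in size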
Records with an inconclusive call do not appear. The source made the active and inactive calls. Calls come from the whole dose curve; as a rule, active = well fitted inhibition curve with a large enough effect; inconclusive = small, poorly fitted or top-dose-only effect; inactive = no such curve, though single readings can be large or run the other way.

// known answers, use as guide
compound: COC(=O)c1ccc([C@H]2Nc3ccc(S(=O)(=O)Nc4ccc(C)cc4)cc3[C@H]3C=CC[C@H]32)cc1
target of assay: Zika virus NS2B-NS3 protease (linked construct)
Potency: 100 µM (active)
--
compound: O=C(O)c1ccc(O)c2ncc(N3CCCN(CCc4cccc5ccccc45)CC3)cc12
target of assay: Zika virus NS2B-NS3 protease (linked construct)
Potency: 3.55 µM (active)
--
compound: O=C(NCc1ccccc1Cl)c1ccc2c(O)c(S(=O)(=O)c3ccccc3)c(=O)[nH]c2c1
target of assay: Zika virus NS2B-NS3 protease (linked construct)
Potency: 50.1 µM (active)

Input: Which Potency value belongs to Cc1cccc(C)c1-n1c(SCC(=O)Nc2ccc(C(=O)O)cc2)nnc1-c1cccc([S+](=O)([O-])N2CCCC2)c1 ?
Output: 89.1 µM (active)

Input: Which Potency value belongs to Nc1c(N=Nc2ccc([N+](=O)[O-])cc2)c(S(=O)(=O)O)cc2cc(S(=O)(=O)O)c(/C=C/c3ccccc3)c(O)c12 ?
Output: 14.1 µM (active)

Input: Which Potency value belongs to CCOc1nc2cccc(C(=O)OC(C)OC(=O)OC3CCCCC3)c2n1Cc1ccc(-c2ccccc2-c2nn[nH]n2)cc1 (stereo not drawn) ?
Output: 12.6 µM (active)

Input: Which Potency value belongs to Cc1cc(S(=O)(=O)Nc2ccc(C(=O)O)cc2)c(C)c(S(=O)(=O)c2ccc(Cl)cc2)c1 ?
Output: 141 µM (active)

Input: Which Potency value belongs to CC(=O)C(N=Nc1ccc(S(=O)(=O)Nc2ccccn2)cc1)C(=O)Nc1ccc(Cl)cc1 (stereo not drawn) ?
Output: 25.1 µM (active)

----------
test: qHTS for Inhibitors of Plasmodium falciparum (CP250) proliferation (AID 504320); details: P. falciparum CP250 in erythrocytes, SYBR Green DNA, 72 h; series mostly up to 6.7 µM
Results filed as inconclusive are left out. Activity calls are given as the source filed them. Calls follow the shape of the dose curve; as a rule, active = well fitted inhibition curve with a large enough effect; inconclusive = small, poorly fitted or top-dose-only effect, or effect the other way; inactive = flat fitted curve, though single readings scatter.
# valid calls are true (active), false (inactive); nothing else

Examples from the recorded data:
molecule: COC[C@@H](O)[C@H]1OCc2cc(OC)ccc2[C@H]1C=Cc1ccccc1
label value: false
//
molecule: COc1ccc(N2C=C3C(=O)C(C)(OC(=O)C4CCCC4)C(=O)C=C3C=C2c2ccsc2)cc1 (stereo not drawn)
label value: false
//
molecule: COc1cccc([C@H]2NC(=O)C[C@@H]3C[C@@H](C)[C@@H](c4cccc(OC)c4)N3C(=O)C=CC[C@@H]2C)c1
label value: false
//
molecule: COC(=O)CC=C1c2ccccc2[C@@H](O)[C@@H]1C
label value: false
//
molecule: C=CC1=C2C=C(C3CC3)N(c3ccc(OC)cc3)C=C2C(=O)C(C)(OC(=O)c2ccco2)C1=O (stereo not drawn)
label value: false

Input: Which outcome did this test record for the molecule COc1cccc([C@H]2Oc3ccc(OC)cc3C(=NO[C@@H](C)c3cn([C@H](CO)Cc4ccccc4)nn3)[C@H]2O)c1 ?
Output: false

Input: Which outcome did this test record for the molecule O=C1OC2(CCCCC2)CC2=C1[C@H]1O[C@](c3ccsc3)(Cc3c1ccc1ccccc31)O2 ?
Output: false

Input: Which outcome did this test record for the molecule CCCCCCCC1=Cc2ccc(F)cc2C(C(C(C)=O)C(=O)OC)N1C(=O)OC (stereo not drawn) ?
Output: false

Input: Which outcome did this test record for the molecule COc1ccc2c(c1)O[C@@H](c1ccc3c(c1)OCO3)[C@H](O)C2=O ?
Output: false

Input: Which outcome did this test record for the molecule C=C(C)C(O)C=Cc1ccccc1OC (stereo not drawn) ?
Output: false

Input: Which outcome did this test record for the molecule CC1(C)CC(=O)C2=C(C1)O[C@@]1(CCCCN3C(=O)c4ccccc4C3=O)Cc3c(ccc4ccccc34)[C@H]2O1 ?
Output: false

Input: Which outcome did this test record for the molecule COC(=O)C[C@H]1c2ccccc2[C@@H]2C(=C[C@@H](C)[C@H]3C(=O)N(c4ccccc4)C(=O)[C@H]32)N1C(=O)OC ?
Output: false

Input: Which outcome did this test record for the molecule C=CCN1C(=O)C2(CC(C)=C[C@@H](C)O2)c2c(Br)cccc21 (stereo partly drawn) ?
Output: false

Input: Which outcome did this test record for the molecule COCCN1C(=O)N[C@@H](CCc2ccccc2)[C@@H](C(=O)OC)[C@H]1C ?
Output: false

Input: Which outcome did this test record for the molecule O=C1c2ccccc2C(=O)N1CCCC[C@]12Cc3c(ccc4ccccc34)[C@H](O1)c1c(cc(-c3ccccc3)oc1=O)O2 ?
Output: true

Input: Which outcome did this test record for the molecule CCOC(=O)NN=C1C[C@@H](O)[C@@H](O)[C@@H]2[C@H]3C(=O)N(Cc4ccc5c(c4)OCO5)C(=O)[C@@H]3CC[C@H]12 ?
Output: false

Input: Which outcome did this test record for the molecule COc1ccc(OC)c(-c2ccccc2C=NNS(=O)(=O)c2ccc(C)cc2)c1 ?
Output: false

Input: Which outcome did this test record for the molecule CC(=O)OC[C@H]1O[C@H](CC=NO[C@H](C)c2cn([C@@H]3COC[C@@H]3O)nn2)C=C[C@@H]1OC(C)=O ?
Output: false

----------
test: SDT Cancer Cell Toxicity qHTS against the NCATS CANVASS Library (AID 1347365); conditions: SDT dog glioma viability, ATP luminescence, 72 h; series mostly up to 46.1 µM; note: nearly all actives have a fitted effect of over 60% in size
Inconclusive results are not listed. Activity calls are given as the source filed them. Calls follow the shape of the dose curve; as a rule, active = well fitted cell-killing curve with a large enough effect; inconclusive = small, poorly fitted or top-dose-only effect; inactive = flat fitted curve, though single readings scatter.
# valid calls are active, inactive; nothing else

compound: C[C@@H]1C[C@H]2C[C@]3(CCCCN3C)[C@@H]3C[C@H]2[C@H](C1)N(C)C3
label value: inactive
//
compound: CO[C@@H]1[C@H](O)[C@@H](C)O[C@@H](OC[C@@H]2C(C)OC(=O)/C=C/[C@H](C)C(O[C@@H]3O[C@H](C)CC4(OC(=O)O[C@@H]4C)C3O)[C@@H](C)CC(C)C(=O)CC[C@H]3OC23)[C@@H]1OC (stereo partly drawn)
label value: inactive
//
compound: CC(C)(Br)[C@@H](Cl)C[C@H](Br)[C@](C)(Cl)/C=C/Br
label value: active

Input: Which outcome did this test record for the compound CC1=CC[C@@]2(C[C@@H]1O)[C@@H](C(=O)O)CC[C@H]2C(C)C ?
Output: inactive
